Biological target: Rac GTPase-activating protein 1 (Homo sapiens) (UniProt Q9H0H5)
Sequence (Q9H0H5 whole entry, looked up): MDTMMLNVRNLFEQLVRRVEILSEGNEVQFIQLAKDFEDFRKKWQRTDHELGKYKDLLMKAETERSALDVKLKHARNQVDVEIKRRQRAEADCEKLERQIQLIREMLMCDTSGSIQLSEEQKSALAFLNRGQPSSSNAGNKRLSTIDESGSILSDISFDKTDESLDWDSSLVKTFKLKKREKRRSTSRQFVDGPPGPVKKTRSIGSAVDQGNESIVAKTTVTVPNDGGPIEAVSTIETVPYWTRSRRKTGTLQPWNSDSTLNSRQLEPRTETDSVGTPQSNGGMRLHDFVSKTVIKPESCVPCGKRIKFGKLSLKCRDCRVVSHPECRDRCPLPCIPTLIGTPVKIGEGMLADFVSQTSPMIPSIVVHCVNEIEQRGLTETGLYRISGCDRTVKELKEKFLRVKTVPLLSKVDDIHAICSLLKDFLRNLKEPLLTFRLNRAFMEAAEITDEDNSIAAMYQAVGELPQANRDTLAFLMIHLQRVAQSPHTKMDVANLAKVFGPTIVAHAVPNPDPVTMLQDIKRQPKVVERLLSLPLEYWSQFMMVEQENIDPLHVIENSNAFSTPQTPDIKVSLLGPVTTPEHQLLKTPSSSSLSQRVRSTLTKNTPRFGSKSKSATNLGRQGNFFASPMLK
Assay: blockers of MgcRacGAP-driven Rac1 GTP hydrolysis – biochemical, ADP Hunter fluorescence, primary and confirmatory, confirmation (AID 624330);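 note: fluorescence reports GDP produced by GAP-driven GTP hydrolysis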
Details: MgcRacGAP-stimulated Rac1 GTP hydrolysis, at 30 µM, stronger effect = higher value, GST-tagged Rac1 F28L mutant substrate
Out of some 340,000 compounds screened, about 2,100 (0.62%) were called active. These entries were drawn from the full list. Measured potencies and affinities stand elsewhere.
The following compounds are listed with their measured inhibition values.
Field format: number, assumed %, no unit text.

COc1cc(CCC(=O)Nc2nnc(-c3cccnc3)s2)cc(OC)c1OC; 9
COCCC(=O)N1CCCC(C(=O)c2ccccc2SC)C1 (centres undefined); 1.95

// moving on: another record for inhibition
get_value(item= Cn1c(=O)cc(-c2ccccc2)c2ccccc21 , readout=inhibition) returns 5.87

====

Target: Rac GTPase-activating protein 1 (Homo sapiens) (UniProt Q9H0H5)
Assay: blockers of MgcRacGAP-driven Rac1 GTP hydrolysis – biochemical, ADP Hunter fluorescence, primary and confirmatory, confirmation (AID 624330);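 note: fluorescence reports GDP produced by GAP-driven GTP hydrolysis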
Details: MgcRacGAP-stimulated Rac1 GTP hydrolysis, at 30 µM, stronger effect = higher value, GST-tagged Rac1 F28L mutant substrate
The whole screen tested about 340,000 compounds, of which about 2,100 (0.62%) were called active. These entries were drawn from the full list. Measured potencies and affinities stand elsewhere.
Reported property: inhibition (%)
Report as a plain number; the unit % is understood.

Sample records with inhibition:
COc1cccc(/C=N/Nc2ncnc3c2ncn3Cc2ccccc2)c1O; 7.53
O=C(Nc1ccc(N2CCOCC2)cc1)c1ccc(Cl)c(S(=O)(=O)N2CCCCC2)c1; 0.26
COc1ccc(N2CCc3c(C)nc(SC)nc32)cc1; 2.67

CC(C)(C)c1ccc(N2C(=O)CC(c3ccccc3)C2=O)cc1 (stereo not given) yielded inhibition of 4.86

Note to self: inhibition recorded for N#CC(=Cc1ccccn1)c1nc(-c2ccc(Cl)cc2)cs1 was 6.28

For record O=C(COc1ccc2cc(Br)ccc2c1)N1CCCC1 the listed inhibition is 8.08

Reported inhibition ( COc1cccc(/C=N/Nc2nn3cnnc3c3ccccc23)c1 ) = 19.3

Per the record, CC(CNC(=O)Cn1ccc(N)nc1=O)c1ccccc1 (stereo not given) has inhibition of -5.59

Entry CCCn1c(SCC(=O)Nc2cc(Cl)ccc2OC)nc(O)cc1=O , inhibition reported as 4.2

inhibition recorded for this molecule, CN(C)c1ccc(CN(C)C2CCCCC2)cc1 , is 7.28

Kindly note the recorded inhibition for CC(C)CN1C(=O)c2ccc(C(=O)Nc3ccc(O)cc3C(=O)O)cc2C1=O , which is 15.1

Notebook: CC(OC(=O)c1ccc(-c2ccc(O)cc2)cc1)C(=O)NC1CCCCC1C (stereo not given) , inhibition read as 8.27

Reported inhibition ( COc1ccc(OC)c(/C=N/Nc2nncn2/N=C/c2cc(OC)ccc2OC)c1 ) = 6.03

The value of inhibition measured for the molecule Cc1ncoc1C(=O)N1CCCC(C(=O)Nc2cccc(-c3ccc(F)cc3)c2)C1 (stereo not given) turned out to be -3.84

Entry COc1ccc(CN2CCN(CC(=O)Nc3ccccc3C(=O)NC3CC3)CC2)cc1F , inhibition reported as 6.52

Per the records, this molecule ( O=C(Nc1ccc(C(=O)N2CCCCC2)cc1)c1ccc([N+](=O)[O-])cc1 ) has inhibition equal to 1.12

Short answer for CN1CCN(S(=O)(=O)c2ccc(Oc3ccc(F)cc3Br)nc2)CC1 : inhibition was 6.58

Record summary for Cc1ccccc1C(=O)Nc1cc(NC(=O)c2ccccc2C)cc(C(=O)O)c1 : reported inhibition = 10.1

COc1cccc(C(=O)NC2CCCc3ccccc32)c1 (stereo not given) yielded inhibition of 11.4

Briefly, inhibition measured for O=C(c1cncc(Br)c1)N1CCN(S(=O)(=O)c2ccc3ccccc3c2)CC1 : 2.91
